Target: JAK1 (Homo sapiens (Human), UniProt P23458)
Sequence (P23458 875-1153): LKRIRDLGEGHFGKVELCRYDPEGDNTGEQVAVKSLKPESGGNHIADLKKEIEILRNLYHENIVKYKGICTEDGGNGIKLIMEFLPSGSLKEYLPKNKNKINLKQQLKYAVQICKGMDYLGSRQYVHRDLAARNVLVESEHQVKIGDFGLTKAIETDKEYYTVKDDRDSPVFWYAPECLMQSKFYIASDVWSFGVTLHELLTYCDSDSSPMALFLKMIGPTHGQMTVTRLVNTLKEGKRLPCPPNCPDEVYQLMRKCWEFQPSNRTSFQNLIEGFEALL
Assay: Jak Biochemical HTRF Assay, JAK1
Conditions: HTRF biochemical assay, GST-tagged catalytic domain; top concentration tested […]; read-out: JAK1 IC50
Below: a set of entries, each annotated with reported IC50.
The reply should be a number in nM, with the unit left off.

Reference set (3 entries):
// CC(C)(C)OC(=O)N1CCC(CC#N)(n2cc(C(N)=O)c(Nc3ccc(S(C)(=O)=O)cc3)n2)C1 (stereo not shown) [Example 2-16] : IC50 value = 0.2

get_value(item= N#CCC1(n2cc(C(N)=O)c(Nc3ccccc3)n2)CCN(S(=O)(=O)c2ccco2)CC1 [Example 37-4] , readout=IC50) returns 0.6

For CCC(=O)N1CCC(CC#N)(n2cc(C(N)=O)c(Nc3ccccc3)n2)CC1 [Example 33-1] the molecule record lists IC50 as 2

Now, please, on to the next molecule.
Per the records, this molecule ( CC(C)(O)C1CC(CN2CCC(CC#N)(n3cc(C(N)=O)c(Nc4ccnc(F)c4)n3)CC2)C1 (stereo not shown) [Example 22-24] ) has IC50 equal to 100

====

Measured IC50 accompanies every entry in the list below.
Molecular target: JAK2 (Homo sapiens (Human), UniProt O60674)
Sequence (O60674 849-1124): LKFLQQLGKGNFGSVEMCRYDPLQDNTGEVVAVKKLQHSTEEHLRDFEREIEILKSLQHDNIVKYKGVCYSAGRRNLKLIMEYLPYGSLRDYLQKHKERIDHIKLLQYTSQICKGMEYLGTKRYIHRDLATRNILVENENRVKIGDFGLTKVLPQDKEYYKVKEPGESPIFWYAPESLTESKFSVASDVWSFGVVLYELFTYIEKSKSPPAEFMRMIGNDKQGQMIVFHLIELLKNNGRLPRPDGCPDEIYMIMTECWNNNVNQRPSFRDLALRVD
Assay: Jak Biochemical HTRF Assay, JAK2
Details: HTRF biochemical assay, GST-tagged catalytic domain; top concentration tested […]
Field: numeric (nM). Do not append units.

# IC50 (compound: Cc1ccc(NC(=O)N2CC(CC#N)(n3cc(C(N)=O)c(Nc4ccccc4)n3)C2)cc1 [Example 38-6] ) is 69

Sure, the documented IC50 for N#CCC1(n2cc(C(N)=O)c(Nc3ccnc(F)c3)n2)CCN(Cc2cc3ccccc3[nH]2)CC1 [Example 22-39] is 14

Please fill in: IC50 reported for N#CCC1(n2cc(C(N)=O)c(Nc3ccc(F)cc3)n2)CCN(C(=O)OC2CCOCC2)CC1 [Example 30-47] = 103

Next:
Per the records, this compound ( CC(C)(C)OC(=O)N1CCC(CC#N)(n2cc(C(N)=O)c(Nc3ccc4c(c3)CNC4=O)n2)CC1 [Example 12-7] ) has IC50 equal to 2

get_value(item= COc1cc(N2CCC(CC#N)(n3cc(C(N)=O)c(Nc4ccc(F)cc4)n3)CC2)ccn1 [Example 3-6] , readout=IC50) returns 5

Looking up Cn1cc(-c2cncc(Nc3nn(C4(CC#N)CCN(C(=O)OCC(F)(F)F)CC4)cc3C(N)=O)c2)cn1 [Example 10-6] , I see its IC50 listed as 71

====

Target: UniProt:P23458
Test: Jak Biochemical HTRF Assay, JAK1
Conditions: HTRF biochemical assay, GST-tagged catalytic domain; top concentration tested […]; read-out: JAK1 IC50
VALUE_KIND: IC50 (nM)
A number alone suffices; assume nM.

Consider the following illustrative entries.
The reported IC50 of the compound N#CCC1(n2cc(C(N)=O)c(Nc3ccc(S(=O)(=O)C(F)F)cc3)n2)CCC(NC2CCOCC2)CC1 (stereo not shown) [Example 40-26] was 0.08

Lab note: measured IC50 of N#CCC1(n2cc(C(N)=O)c(Nc3ccc(F)cc3)n2)CCN(Cc2cccnn2)CC1 was 6

Entry N#CCC1(n2cc(C(N)=O)c(Nc3ccnc(F)c3)n2)CCN(Cc2cccc(F)c2)CC1 — recorded IC50 = 0.07

In the following, a different compound is considered.
Documented IC50 of N#CCC1(n2cc(C(N)=O)c(Nc3ccc(F)cc3)n2)CCC(Nc2ccccc2)CC1 (stereo not shown) [Example 40-96] : 0.09
